Every entry's value here was drawn from patent US20260258084A1.

Examples of compounds with documented remaining at 1 h, 1 µM follow.
Tested on: Pancreatin
Test: Protease stability in simulated intestinal fluid (Pancreatin-SIF, FaSSIF)
Type: in vitro ADME
Conditions: 60 min, 1 μM peptide, 37° C., read-out: FaSSIF 60 (min), remaining percent of peptide
Starred links: 1 amine or outer side, 2 acyl side, 3 side chain; linkers in the order of their positions; H or OH if unused. Positions of bridges follow the written chain, without caps; N, C: chain ends. Non-standard residues stand in square brackets, D forms with d. Residues, ends and D or L forms follow the SMILES beside them. *: point of attachment. X5 = CN(C(=O)CCC(=O)[*:3])[C@@H](CS[*:2])C(=O)[*:1]; X3 = CN(CCCCC(=O)N[C@@H](CS[*:2])C(=O)[*:1])[*:3]; X6 = O=C(CCC(=O)[*:3])N[C@@H](CS[*:2])C(=O)[*:1]; Trp(7-Me) = Cc1cccc2c(C[C@H](N)C(=O)O)c[nH]c12; X1 = O=C(CCCCN[*:3])N[C@@H](CS[*:2])C(=O)[*:1]; αMeLys(Me2) = CN(C)CCCC[C@](C)(N)C(=O)O; 2Nal = N[C@@H](Cc1ccc2ccccc2c1)C(=O)O; d2Nal = N[C@H](Cc1ccc2ccccc2c1)C(=O)O; AEF = NCCOc1ccc(C[C@H](N)C(=O)O)cc1; 3Pal = N[C@@H](Cc1cccnc1)C(=O)O; Lys(Me) = CNCCCC[C@H](N)C(=O)O; αMeL = CC(C)C[C@](C)(N)C(=O)O; Thp = NC1(C(=O)O)CCOCC1; Me2NCH2CH2 = CN(C)CC*; Aib = CC(C)(N)C(=O)O; Ahx = NCCCCCC(=O)O; Ava = NCCCCC(=O)O; Sar = CNCC(=O)O
Express the result in % but write the number alone.

CC(=O)N[C@H]1CCCCNC(=O)[C@@H]2CSSC[C@H](NC(=O)[C@H](CCC(N)=O)NC(=O)[C@H](Cc3c[nH]c4ccccc34)NC1=O)C(=O)N[C@@H](Cc1ccc(OCCN)cc1)C(=O)N[C@@H](Cc1ccc3ccccc3c1)C(=O)NC(C)(C)C(=O)N[C@H](C(=O)N[C@@H](CC(N)=O)C(=O)NCC(N)=O)CCC(=O)N(C)CCCCC(=O)N2 [compound 15] (Ac-KWQC[AEF][2Nal][Aib]ENG-NH2; linker 1-4-8 via X3) = 81
CC(=O)NCCCC[C@@H]1NC(=O)[C@H](Cc2c[nH]c3ccccc23)NC(=O)[C@@H](NC(C)=O)CCCCNC(=O)[C@@H]2CSSC[C@H](NC1=O)C(=O)N[C@@H](Cc1ccc(OCCN(C)C)cc1)C(=O)N[C@H](Cc1ccc3ccccc3c1)C(=O)N[C@@](C)(CCCCN(C)C)C(=O)N[C@H](C(=O)N[C@@H](CC(N)=O)C(=O)N[C@@H](Cc1cccnc1)C(=O)N(C)CC(N)=O)CCC(=O)NCCCCC(=O)N2 [compound 59] (Ac-KWK(Ac)CY(Me2NCH2CH2)[d2Nal][αMeLys(Me2)]EN[3Pal][Sar]-NH2; linker 1-4-8 via X1) = 98
CC(=O)N[C@H]1CCCCNC(=O)[C@@H]2CSSC[C@H](NC(=O)[C@H](CC(C)C)NC(=O)[C@H](Cc3c[nH]c4c(C)cccc34)NC1=O)C(=O)N[C@@H](Cc1ccc(OCCN(C)C)cc1)C(=O)N[C@@H](Cc1ccc3ccccc3c1)C(=O)N[C@@](C)(CC(C)C)C(=O)N[C@H](C(=O)N[C@@H](CC(N)=O)C(=O)N[C@@H](Cc1cccnc1)C(=O)N(C)CC(N)=O)CCCCN(C)C(=O)CCC(=O)N2C [compound 69] (Ac-K[Trp(7-Me)]LCY(Me2NCH2CH2)[2Nal][αMeL][Lys(Me)]N[3Pal][Sar]-NH2; linker 1-4-8 via X5) = 97
C[C@H](NC(=O)[C@@H]1CC(=O)NCCCCCC(=O)N[C@H]2CSSC[C@H](NC(=O)[C@H](CCC(N)=O)NC(=O)[C@H](Cc3c[nH]c4ccccc34)NC(=O)CCCCNC2=O)C(=O)N[C@@H](Cc2ccc(OCCN)cc2)C(=O)N[C@@H](Cc2ccc3ccccc3c2)C(=O)NC(C)(C)C(=O)N1)C(=O)NCC(N)=O [compound 53] ([Ahx]C[Ava]WQC[AEF][2Nal][Aib]DAG-NH2; disulfide 2-6; lactam N-10) = 95

The compound CC(=O)NCCCC[C@@H]1NC(=O)[C@H](Cc2c[nH]c3c(C)cccc23)NC(=O)[C@H]([C@@H](C)O)NC(=O)[C@H](CC(N)=O)NC(=O)[C@@H]2CSSC[C@H](NC1=O)C(=O)N[C@@H](Cc1ccc(OCCN(C)C)cc1)C(=O)N[C@@H](Cc1ccc3ccccc3c1)C(=O)NC(C)(C)C(=O)N[C@H](C(=O)N[C@@H](CC(N)=O)C(=O)N[C@@H](Cc1c[nH]cn1)C(N)=O)CCC(=O)NCCCCC(=O)N2 [compound 20] ([Ava]CNT[Trp(7-Me)]K(Ac)CY(Me2NCH2CH2)[2Nal][Aib]ENH-NH2; disulfide 2-7; lactam N-11) showed remaining at 1 h, 1 µM equal to 85

remaining at 1 h, 1 µM recorded for this compound, CC(=O)N[C@H]1CCCCNC(=O)[C@@H]2CSSC[C@H](NC(=O)[C@H](CC(C)C)NC(=O)[C@H](Cc3c[nH]c4c(C)cccc34)NC1=O)C(=O)N[C@@H](Cc1ccc(OCCN(C)C)cc1)C(=O)N[C@@H](Cc1ccc3ccccc3c1)C(=O)N[C@@](C)(CC(C)C)C(=O)N[C@H](C(=O)N[C@@H](CC(N)=O)C(=O)N[C@@H](Cc1cccnc1)C(=O)N(C)CC(N)=O)CCCCNC(=O)CCC(=O)N2 [compound 158] (Ac-K[Trp(7-Me)]LCY(Me2NCH2CH2)[2Nal][αMeL]KN[3Pal][Sar]-NH2; linker 1-4-8 via X6) , is 80

The recorded remaining at 1 h, 1 µM for CC(=O)N[C@H]1CCCCNC(=O)[C@@H]2CSSC[C@H](NC(=O)[C@H](CCC(N)=O)NC(=O)[C@H](Cc3c[nH]c4ccccc34)NC1=O)C(=O)N[C@@H](Cc1ccc(OCCN)cc1)C(=O)N[C@@H](Cc1ccc3ccccc3c1)C(=O)N[C@@](C)(CC(C)C)C(=O)N[C@H](C(=O)N[C@@H](CC(N)=O)C(=O)N[C@@H](CC(N)=O)C(N)=O)CCC(=O)N(C)CCCCC(=O)N2 [compound 14] (Ac-KWQC[AEF][2Nal][αMeL]ENN-NH2; linker 1-4-8 via X3) is 83

Given item CC(=O)NCCCC[C@@H]1NC(=O)[C@H](Cc2c[nH]c3c(C)cccc23)NC(=O)[C@@H](NC(C)=O)CCCCNC(=O)[C@@H]2CSSC[C@H](NC1=O)C(=O)N[C@@H](Cc1ccc(OCCN(C)C)cc1)C(=O)N[C@@H](Cc1ccc3ccccc3c1)C(=O)NC1(CCOCC1)C(=O)N[C@H](C(=O)N[C@@H](CC(N)=O)C(=O)N[C@@H](Cc1cccnc1)C(=O)N(C)CC(N)=O)CCCCNC(=O)CCC(=O)N2 [compound 105] (Ac-K[Trp(7-Me)]K(Ac)CY(Me2NCH2CH2)[2Nal][Thp]KN[3Pal][Sar]-NH2; linker 1-4-8 via X6) , the value recorded as its remaining at 1 h, 1 µM is 78
